test: growth suppression of yeast trafficking mutant, preliminary HTS, modulators of trafficking downstream of Golgi apparatus project, 1536-format plate, OD 615 nm (AID 637); details: yeast transport mutant growth, absorbance 615 nm, 18 h; active compounds read high

{"compound": "Cc1ccc2c(CNCc3ccco3)cc(=O)oc2c1", "inhibition [%]": -4.03}
{"compound": "COC(=O)C1(C)NC(c2ccco2)C2C(=O)N(c3ccc(C)cc3)C(=O)C21 (stereo unspecified)", "inhibition [%]": -3.83}
{"compound": "COc1cc2c(=O)n(Cc3ccccc3)c(=O)n(CC(=O)NCc3ccco3)c2cc1OC", "inhibition [%]": -3.65}
{"compound": "O=S(=O)(NCCc1ccccc1F)c1cccc(S(=O)(=O)N2CCOCC2)c1", "inhibition [%]": 3.77}
{"compound": "O=C(Nc1cccc2ccccc12)N1CCOCC1", "inhibition [%]": 11.3}
{"compound": "CS(=O)(=O)Nc1ccc(S(=O)(=O)Nc2nccs2)cc1", "inhibition [%]": 1.31}

----------
# differential viability (reversal) annotations
assay: reversal of MRP1-mediated doxorubicin resistance, pilot screen, H69AR cells, doxorubicin co-treatment (AID 601); conditions: H69AR cells + 2 uM doxorubicin, CellTiter-Glo, 72 h; at 10 µM; active compounds read high
property.name: differential viability (reversal) (%)

{"compound": "CC(=O)Nc1ccc(S(=O)(=O)NCC(C)NS(=O)(=O)c2ccc(NC(C)=O)cc2)cc1 (configuration not stated)", "property.name": "differential viability (reversal)", "measured": 3.06}
{"compound": "Cc1cc(=O)[nH]c(=S)n1-c1ccccc1", "property.name": "differential viability (reversal)", "measured": 17.7}
{"compound": "CC1(C)Cc2c(c(-c3ccccc3)nc(N3CCCC3)c2C(N)=O)CO1", "property.name": "differential viability (reversal)", "measured": 4.6}
{"compound": "O=C(OCc1ccccc1F)c1ccc2c(c1)OCCO2", "property.name": "differential viability (reversal)", "measured": 9.29}
{"compound": "OC(CCN1CCOCC1)(c1ccc(Cl)cc1)C1CCCCC1 (configuration not stated)", "property.name": "differential viability (reversal)", "measured": -3.7}
{"compound": "Cn1c(CNc2nc(-c3ccccc3)cs2)nnc1SCC(=O)N1CCc2ccccc21", "property.name": "differential viability (reversal)", "measured": 9.91}
{"compound": "CCN1C(=O)NC(c2cc(Br)ccc2OC)C(C(=O)OC)=C1C (configuration not stated)", "property.name": "differential viability (reversal)", "measured": -2.65}
{"compound": "CC(=O)Nc1cccc(NC(=O)c2oc3ccccc3c2C)c1", "property.name": "differential viability (reversal)", "measured": -12.4}
{"compound": "C=CCNC(=O)c1cccc(Br)c1", "property.name": "differential viability (reversal)", "measured": -9.44}
{"compound": "CCN1CCN(c2ncnc3c2oc2nc(C)c4c(c23)CC(C)(C)OC4)CC1", "property.name": "differential viability (reversal)", "measured": -1.16}
{"compound": "Cc1cccc(Nc2nc(N)nc(CN3CCC(C(N)=O)CC3)n2)c1C", "property.name": "differential viability (reversal)", "measured": 12.8}
{"compound": "CCN(CC)CCCC1(CN)OCCc2ccccc21 (configuration not stated)", "property.name": "differential viability (reversal)", "measured": -18.9}
{"compound": "CC1(C)CC(=O)C(CC2=C(O)CC(C)(C)CC2=O)=C(O)C1", "property.name": "differential viability (reversal)", "measured": 10.5}
{"compound": "COCC(=O)N(Cc1ccc(OC)cc1)Cc1nc2ccccc2c(=O)[nH]1", "property.name": "differential viability (reversal)", "measured": -13.9}
{"compound": "COc1ccc(S(=O)(=O)N2CCN(C3CCCCCCC3)CC2)cc1", "property.name": "differential viability (reversal)", "measured": -6.63}
{"compound": "C=CCn1c(SCC2=C(C(=O)OCC)C(C)NC(=O)N2)nnc1C1CCCCC1 (configuration not stated)", "property.name": "differential viability (reversal)", "measured": -4.74}
{"compound": "COc1cc(OC)c(OC)cc1CN(C)CCc1ccccn1", "property.name": "differential viability (reversal)", "measured": -4.87}
{"compound": "COc1ccc(-c2nnc(SCC(=O)N3CCCCC3)o2)cc1OC", "property.name": "differential viability (reversal)", "measured": 5.33}
{"compound": "O=C(CSc1ncnc2sc3c(c12)CCCCC3)NCc1ccco1", "property.name": "differential viability (reversal)", "measured": -52.1}
{"compound": "N#Cc1cc2sc3nnc(-c4ccncc4)n3c2cc1C#N", "property.name": "differential viability (reversal)", "measured": -18.2}
{"compound": "O=C(NCc1cccs1)c1cc2c(s1)-c1ccccc1OC2", "property.name": "differential viability (reversal)", "measured": 5.04}
{"compound": "CC(=O)NC(Cc1cc(C)ccc1C)C(=O)N1CCN(C(=O)Nc2ccc(C(C)=O)cc2)CC1 (configuration not stated)", "property.name": "differential viability (reversal)", "measured": -5.32}
{"compound": "COC(=O)c1cc(Br)c(=O)n(CCN2CCOCC2)c1", "property.name": "differential viability (reversal)", "measured": 13.5}
{"compound": "Cc1ccc(NCC(O)C(O)C(O)CO)cc1C (configuration not stated)", "property.name": "differential viability (reversal)", "measured": -2.34}
{"compound": "COc1ccc2ccccc2c1CN1CCN(C)CC1", "property.name": "differential viability (reversal)", "measured": 7.19}
{"compound": "Cc1nnc(C)c2c(C)n(-c3ccc(Br)cc3)c(C)c12", "property.name": "differential viability (reversal)", "measured": 17.2}
{"compound": "COc1ccc(N2CCN(Cc3nc4c(c(=O)[nH]c(=O)n4C)n3CC(C)=O)CC2)cc1", "property.name": "differential viability (reversal)", "measured": 10.4}
{"compound": "COc1ccc(-n2ncc3c(=O)n(CC(=O)OCc4ccccc4)cnc32)cc1", "property.name": "differential viability (reversal)", "measured": 12}
{"compound": "Cc1cc(C)nc(N2CCC(C(=O)NCc3cccc(C(F)(F)F)c3)CC2)n1", "property.name": "differential viability (reversal)", "measured": 4.94}
{"compound": "COC(=O)c1cc2oc(C)cc2n1CC(=O)Nc1ccc(C)c(C)c1", "property.name": "differential viability (reversal)", "measured": -3.33}
{"compound": "Cc1c(Cl)cccc1N1C(=O)c2ccccc2C1=O", "property.name": "differential viability (reversal)", "measured": 2.93}
{"compound": "Cn1c(SC/C=C/c2ccccc2)nnc1-c1cnccn1", "property.name": "differential viability (reversal)", "measured": 10.3}
{"compound": "COc1ccc(OCC(=O)N2CCN(C(=O)c3cccs3)CC2)cc1", "property.name": "differential viability (reversal)", "measured": 1.78}
{"compound": "Nc1sccc1C(=O)c1ccc(Cl)cc1", "property.name": "differential viability (reversal)", "measured": 4.88}
{"compound": "Cc1cc(C)c2c(n1)nn1c(N3CCOCC3)cc(C)nc21", "property.name": "differential viability (reversal)", "measured": -6.34}
{"compound": "COCn1c(COc2ccccc2)nc2ccccc21", "property.name": "differential viability (reversal)", "measured": -2.19}
{"compound": "CC(Sc1nc(-c2ccccc2)cc(C(F)(F)F)n1)C(=O)N1CCC(C(N)=O)CC1 (configuration not stated)", "property.name": "differential viability (reversal)", "measured": -1.27}
{"compound": "O=C(O)CC1SC(=Nc2cccc(C(F)(F)F)c2)NC1=O (configuration not stated)", "property.name": "differential viability (reversal)", "measured": 9.34}
{"compound": "COc1ccc(Cn2nnnc2C(c2cccs2)N2CCOCC2)cc1 (configuration not stated)", "property.name": "differential viability (reversal)", "measured": -1.24}
{"compound": "CC(C(=O)N1CCOCC1)N1c2cccc3cccc(c23)S1(=O)=O (configuration not stated)", "property.name": "differential viability (reversal)", "measured": 0.905}
{"compound": "O=C(c1ccccc1Cl)N1CCc2ccccc2C1", "property.name": "differential viability (reversal)", "measured": 1.55}
{"compound": "O=C(c1cnn2c(C(F)F)cc(C3CC3)nc12)N1CCOCC1", "property.name": "differential viability (reversal)", "measured": 19.2}
{"compound": "Cc1ccc(CCNC(=O)Cn2cccc2)cc1", "property.name": "differential viability (reversal)", "measured": 5.51}
{"compound": "CCOC(=O)c1cc(-c2ccco2)nc2c1c(C)nn2CCC#N", "property.name": "differential viability (reversal)", "measured": -16.2}
{"compound": "O=C(O)CN1C(=O)C2(OCCCO2)c2ccccc21", "property.name": "differential viability (reversal)", "measured": -0.23}
{"compound": "O=C(N1CCCCCC1)N1CCN(C(=O)N2CCOCC2)CC1", "property.name": "differential viability (reversal)", "measured": 5.18}
{"compound": "CSCCC(NS(=O)(=O)c1ccc2c(c1)oc(=O)n2C)C(=O)NC1CCCCC1 (configuration not stated)", "property.name": "differential viability (reversal)", "measured": 12.6}
